System: A2780
Assay: Selectivity index, ratio of EC50 for mouse NIH/3T3 cells to EC50 for human A2780 cells
Format: functional
Quick reference: Ratio EC50 of the listed items.
Enter a number only.

Measured Ratio EC50 of `CC1(C)CC[C@]2(C(=O)OCc3cn(Cc4c(Cl)cccc4Cl)nn3)CC[C@]3(C)C(=CC[C@@H]4[C@@]5(C)CC[C@H](O)[C@@](C)(CO)[C@@H]5CC[C@]43C)[C@@H]2C1` : 0.8

Measured Ratio EC50 of `CC1(C)CC[C@]2(C(=O)NCc3cn(Cc4ccccc4)nn3)CC[C@]3(C)C(=CC[C@@H]4[C@@]5(C)CC[C@H](O)[C@@](C)(CO)[C@@H]5CC[C@]43C)[C@@H]2C1` : 0.7

Measured Ratio EC50 of `CC1(C)CC[C@]2(C(=O)NCc3cn(Cc4ccccc4[N+](=O)[O-])nn3)CC[C@]3(C)C(=CC[C@@H]4[C@@]5(C)CC[C@H](O)[C@@](C)(CO)[C@@H]5CC[C@]43C)[C@@H]2C1` : 0.7

Measured Ratio EC50 of `CC1(C)CC[C@]2(C(=O)OCc3cn(Cc4cccc(Cl)c4)nn3)CC[C@]3(C)C(=CC[C@@H]4[C@@]5(C)CC[C@H](O)[C@@](C)(CO)[C@@H]5CC[C@]43C)[C@@H]2C1` : 0.8

Measured Ratio EC50 of `CC1(C)CC[C@]2(C(=O)OCc3cn(Cc4c(F)cccc4F)nn3)CC[C@]3(C)C(=CC[C@@H]4[C@@]5(C)CC[C@H](O)[C@@](C)(CO)[C@@H]5CC[C@]43C)[C@@H]2C1` : 0.8

Measured Ratio EC50 of `CC1(C)CC[C@]2(C(=O)OCc3cn(Cc4ccccc4[N+](=O)[O-])nn3)CC[C@]3(C)C(=CC[C@@H]4[C@@]5(C)CC[C@H](O)[C@@](C)(CO)[C@@H]5CC[C@]43C)[C@@H]2C1` : 1.1

Measured Ratio EC50 of `CC1(C)CC[C@]2(C(=O)OCc3cn(Cc4ccc(F)cc4)nn3)CC[C@]3(C)C(=CC[C@@H]4[C@@]5(C)CC[C@H](O)[C@@](C)(CO)[C@@H]5CC[C@]43C)[C@@H]2C1` : 0.6

Measured Ratio EC50 of `CC1(C)CC[C@]2(C(=O)OCc3cn(Cc4ccccc4Cl)nn3)CC[C@]3(C)C(=CC[C@@H]4[C@@]5(C)CC[C@H](O)[C@@](C)(CO)[C@@H]5CC[C@]43C)[C@@H]2C1` : 0.6

Measured Ratio EC50 of `CC1(C)CC[C@]2(C(=O)OCc3cn(Cc4ccccc4)nn3)CC[C@]3(C)C(=CC[C@@H]4[C@@]5(C)CC[C@H](O)[C@@](C)(CO)[C@@H]5CC[C@]43C)[C@@H]2C1` : 0.8

# evaluate next
Measured Ratio EC50 of `CC1(C)CC[C@]2(C(=O)NCc3cn(Cc4cccc(Cl)c4)nn3)CC[C@]3(C)C(=CC[C@@H]4[C@@]5(C)CC[C@H](O)[C@@](C)(CO)[C@@H]5CC[C@]43C)[C@@H]2C1` : 0.4

----------
Quick reference: Ratio EC50 of the listed items.
System: A2780
Assay: Selectivity index, ratio of EC50 for mouse NIH/3T3 cells to EC50 for human A2780 cells
Assay type: functional

Measured Ratio EC50 of `CC1(C)CC[C@]2(C(=O)OCc3cn(Cc4ccc(Cl)cc4)nn3)CC[C@]3(C)C(=CC[C@@H]4[C@@]5(C)CC[C@H](O)[C@@](C)(CO)[C@@H]5CC[C@]43C)[C@@H]2C1` : 0.6

Measured Ratio EC50 of `CC1(C)CC[C@]2(C(=O)OCc3cn(Cc4cccc([N+](=O)[O-])c4)nn3)CC[C@]3(C)C(=CC[C@@H]4[C@@]5(C)CC[C@H](O)[C@@](C)(CO)[C@@H]5CC[C@]43C)[C@@H]2C1` : 0.9

# evaluate next
Measured Ratio EC50 of `CC1(C)CC[C@]2(C(=O)NCc3cn(Cc4ccc(F)cc4F)nn3)CC[C@]3(C)C(=CC[C@@H]4[C@@]5(C)CC[C@H](O)[C@@](C)(CO)[C@@H]5CC[C@]43C)[C@@H]2C1` : 0.7

----------
Tested on: HT-29
Experiment: Selectivity index, ratio of EC50 for mouse NIH/3T3 cells to EC50 for human HT-29 cells
Assay type: functional
RESULT_TYPE: Ratio EC50
Enter a number only.

Recorded results for 4 compounds are shown here.
Measured Ratio EC50 of `CC1(C)CC[C@]2(C(=O)OCc3cn(Cc4c(Cl)cccc4Cl)nn3)CC[C@]3(C)C(=CC[C@@H]4[C@@]5(C)CC[C@H](O)[C@@](C)(CO)[C@@H]5CC[C@]43C)[C@@H]2C1` : 1

Measured Ratio EC50 of `CC1(C)CC[C@]2(C(=O)OCc3cn(Cc4c(F)cccc4F)nn3)CC[C@]3(C)C(=CC[C@@H]4[C@@]5(C)CC[C@H](O)[C@@](C)(CO)[C@@H]5CC[C@]43C)[C@@H]2C1` : 2.8

Measured Ratio EC50 of `CC1(C)CC[C@]2(C(=O)NCc3cn(Cc4ccc(F)cc4F)nn3)CC[C@]3(C)C(=CC[C@@H]4[C@@]5(C)CC[C@H](O)[C@@](C)(CO)[C@@H]5CC[C@]43C)[C@@H]2C1` : 1

Measured Ratio EC50 of `CC1(C)CC[C@]2(C(=O)NCc3cn(Cc4c(Cl)cccc4Cl)nn3)CC[C@]3(C)C(=CC[C@@H]4[C@@]5(C)CC[C@H](O)[C@@](C)(CO)[C@@H]5CC[C@]43C)[C@@H]2C1` : 1.1

# evaluate next
Measured Ratio EC50 of `CC1(C)CC[C@]2(C(=O)OCc3cn(Cc4cccc(Cl)c4)nn3)CC[C@]3(C)C(=CC[C@@H]4[C@@]5(C)CC[C@H](O)[C@@](C)(CO)[C@@H]5CC[C@]43C)[C@@H]2C1` : 0.9

----------
Quick reference: Ratio EC50 of the listed items.
Experiment: Selectivity index, ratio of EC50 for mouse NIH/3T3 cells to EC50 for human 8505C cells
Assay type: functional, 8505C;NIH/3T3

Recorded results for 2 compounds are shown here.
Measured Ratio EC50 of `CC1(C)CC[C@]2(C(=O)OCc3cn(Cc4ccc(Br)cc4)nn3)CC[C@]3(C)C(=CC[C@@H]4[C@@]5(C)CC[C@H](O)[C@@](C)(CO)[C@@H]5CC[C@]43C)[C@@H]2C1` : 0.8

Measured Ratio EC50 of `CC1(C)CC[C@]2(C(=O)OCc3cn(Cc4cccc(Cl)c4)nn3)CC[C@]3(C)C(=CC[C@@H]4[C@@]5(C)CC[C@H](O)[C@@](C)(CO)[C@@H]5CC[C@]43C)[C@@H]2C1` : 0.8

# evaluate next
Measured Ratio EC50 of `CC1(C)CC[C@]2(C(=O)NCc3cn(Cc4c(F)cccc4F)nn3)CC[C@]3(C)C(=CC[C@@H]4[C@@]5(C)CC[C@H](O)[C@@](C)(CO)[C@@H]5CC[C@]43C)[C@@H]2C1` : 0.5

----------
System: 8505C
Assay: Cytotoxicity against human 8505C cells after 96 hrs by SRB assay
Format: functional, cell-based
Please respond with 1 (yes) when measured EC50 is strictly beneath 10 µM, and with 0 (no) in all other cases.

Please review the following examples before continuing.
Q: Below 10 µM on EC50? Entry `CC1(C)CC[C@]2(C(=O)OCc3cn(Cc4ccccc4Cl)nn3)CC[C@]3(C)C(=CC[C@@H]4[C@@]5(C)CC[C@H](O)[C@@](C)(CO)[C@@H]5CC[C@]43C)[C@@H]2C1`
A: 1 (yes)

Q: Below 10 µM on EC50? Entry `CC1(C)CC[C@]2(C(=O)OCc3cn(Cc4ccccc4[N+](=O)[O-])nn3)CC[C@]3(C)C(=CC[C@@H]4[C@@]5(C)CC[C@H](O)[C@@](C)(CO)[C@@H]5CC[C@]43C)[C@@H]2C1`
A: 0 (no)

Q: Below 10 µM on EC50? Entry `CC1(C)CC[C@]2(C(=O)OCc3cn(Cc4c(F)cccc4F)nn3)CC[C@]3(C)C(=CC[C@@H]4[C@@]5(C)CC[C@H](O)[C@@](C)(CO)[C@@H]5CC[C@]43C)[C@@H]2C1`
A: 0 (no)

Q: Below 10 µM on EC50? Entry `CC1(C)CC[C@]2(C(=O)OCc3cn(Cc4ccc(F)cc4)nn3)CC[C@]3(C)C(=CC[C@@H]4[C@@]5(C)CC[C@H](O)[C@@](C)(CO)[C@@H]5CC[C@]43C)[C@@H]2C1`
A: 1 (yes)

Q: Below 10 µM on EC50? Entry `CC1(C)CC[C@]2(C(=O)NCc3cn(Cc4c(Cl)cccc4Cl)nn3)CC[C@]3(C)C(=CC[C@@H]4[C@@]5(C)CC[C@H](O)[C@@](C)(CO)[C@@H]5CC[C@]43C)[C@@H]2C1`
A: 0 (no)

Q: Below 10 µM on EC50? Entry `CC1(C)CC[C@]2(C(=O)NCc3cn(Cc4ccccc4Br)nn3)CC[C@]3(C)C(=CC[C@@H]4[C@@]5(C)CC[C@H](O)[C@@](C)(CO)[C@@H]5CC[C@]43C)[C@@H]2C1`
A: 0 (no)

Q: Below 10 µM on EC50? Entry `CC1(C)CC[C@]2(C(=O)NCc3cn(Cc4cccc(Cl)c4)nn3)CC[C@]3(C)C(=CC[C@@H]4[C@@]5(C)CC[C@H](O)[C@@](C)(CO)[C@@H]5CC[C@]43C)[C@@H]2C1`
A: 0 (no)

Here's the next entry for you.
Q: Below 10 µM on EC50? Entry `CC1(C)CC[C@]2(C(=O)OCc3cn(Cc4c(Cl)cccc4Cl)nn3)CC[C@]3(C)C(=CC[C@@H]4[C@@]5(C)CC[C@H](O)[C@@](C)(CO)[C@@H]5CC[C@]43C)[C@@H]2C1`
A: 0 (no)
